test system: MDA-MB-231; experiment: Cytotoxicity against human MDA-MB-231 cells assessed as cell growth inhibition after 24 hrs by MTT assay; format: functional, cell-based; settings: MDA-MB-231, 24 h
In this section, each of the compounds is paired with its reported IC50.
Report the figure in nM without appending any unit label.

| Smiles String | Measurement Unit | Reported Result |
| --- | --- | --- |
| C[C@@H]1C[C@@](C)(O)C[C@H]2c3cc(OCc4cc(C(F)(F)F)cc(C(F)(F)F)c4)c(OCc4cc(C(F)(F)F)cc(C(F)(F)F)c4)cc3CCN12 | nM | 530 |

In the following, a different compound is considered.
## Task Give IC50 (MDA-MB-231) of the following compound: COc1ccc([C@@H]2C[C@@H](O)C[C@H]3c4cc(OCc5cc(C)cc(C)c5)c(OCc5cc(C)cc(C)c5)cc4CCN23)cc1OC
## Result 970

---

In this section, each of the compounds is paired with its reported pIC50.
tested on: PC-3; assay: Cytotoxicity against human PC3 cells assessed as cell growth inhibition after 24 hrs by MTT assay; format: functional, cell-based; conditions: PC-3, 24 h
pIC50: −log10 of the molar value.

| Compound | pIC50 |
| --- | --- |
| CC[C@@H]1CC(=O)C/C=C(/C)[C@H]2c3cc(OCc4ccccc4)c(OCc4ccccc4)cc3CCN12 (relative stereo) | < 4.70 |
| COc1cc2c(cc1OC)[C@@H]1C[C@H](O)C[C@@H](c3ccccc3)N1CC2 | < 4.70 |
| O[C@@H]1C[C@@H](c2ccc(-c3ccccc3)cc2)N2CCc3cc(OCc4ccccc4)c(OCc4ccccc4)cc3[C@@H]2C1 | 5.94 |
| O[C@@H]1CCN2CCc3cc(OCc4ccccc4)c(OCc4ccccc4)cc3[C@@H]2C1 (relative stereo) | < 4.70 |
| O[C@]1(c2ccccc2)C[C@@H](c2ccccc2)N2CCc3cc(OCc4ccccc4)c(OCc4ccccc4)cc3[C@@H]2C1 | < 4.70 |
| Cc1cc(C)cc(COc2cc3c(cc2OCc2cc(C)cc(C)c2)[C@@H]2CC(=O)C[C@@H](C)N2CC3)c1 (relative stereo) | < 4.70 |
| O[C@H]1C[C@@H](c2ccccc2)N2CCc3cc(OCc4ccccc4)ccc3[C@@H]2C1 | < 4.70 |
| C[C@@H]1C[C@@H](O)C[C@H]2c3cc4c(cc3CCN12)OCO4 | < 4.70 |
| O=C1C[C@@H](c2ccccc2)N2CCc3ccc(OCc4ccccc4)cc3[C@@H]2C1 (relative stereo) | < 4.70 |
| CCCCCC[C@@H]1C[C@H](O)C[C@H]2c3cc(OCc4ccccc4)c(OCc4ccccc4)cc3CCN12 | < 4.70 |

## Task // returns reported pIC50 for input COc1ccc([C@@H]2C[C@H](O)C[C@H]3c4cc(OCc5ccccc5)c(OCc5ccccc5)cc4CCN23)cc1OC
## Result < 4.70

## Task Also, Cc1cc(C)cc(COc2cc3c(cc2OCc2cc(C)cc(C)c2)[C@@H]2C[C@H](O)C[C@@H](C)N2CC3)c1 (racemic) please.
## Result 6.18

## Task Also, CC[C@@H]1C[C@H](O)C[C@H]2c3cc(OCc4ccccc4)c(OCc4ccccc4)cc3CCN12 please.
## Result 5.45

## Task Also, CCCCCCCCCCCCCCCCOc1cc2c(cc1OCCCCCCCCCCCCCCCC)[C@@H]1CC(=O)C[C@@H](C)N1CC2 please.
## Result < 4.70

## Task Also, COc1ccc([C@@H]2CC(=O)C[C@H]3c4cc(OCc5ccccc5)c(OCc5ccccc5)cc4CCN23)cc1 (relative stereo) please.
## Result < 4.70

---

tested on: MDA-MB-231; experiment: Cytotoxicity against human MDA-MB-231 cells assessed as cell growth inhibition after 24 hrs by MTT assay; assay type: functional, cell-based; conditions: MDA-MB-231, 24 h
pIC50: −log10 of the molar value.
In this section, each of the molecules is paired with its reported pIC50.

## Task Give pIC50 (MDA-MB-231) of the following molecule: O[C@H]1C[C@@H](c2ccccc2)N2CCc3cc4c(cc3[C@@H]2C1)OCO4
## Result < 4.70

---

tested on: MDA-MB-231; experiment: Cytotoxicity against human MDA-MB-231 cells assessed as cell growth inhibition after 24 hrs by MTT assay; type: functional, cell-based; details: MDA-MB-231, 24 h
In this section, each of the molecules is paired with its reported IC50.
Report the figure in µM without appending any unit label.

| Smiles String | Measurement Unit | IC50 |
| --- | --- | --- |
| C[C@@H]1C[C@@H](O)C[C@H]2c3cc(OCc4cccc(F)c4)c(OCc4cccc(F)c4)cc3CCN12 | µM | 0.58 |

## Task // returns reported IC50 for input O[C@@H]1C[C@@H](c2ccc(-c3ccccc3)cc2)N2CCc3cc(OCc4ccccc4)c(OCc4ccccc4)cc3[C@@H]2C1
## Result 3.28

## Task Also, CCC[C@@H]1C[C@@H](O)C[C@H]2c3cc(OCc4ccccc4)c(OCc4ccccc4)cc3CCN12 please.
## Result 2.57

---

system: DU-145; test: Cytotoxicity against human DU145 cells assessed as cell growth inhibition after 24 hrs by MTT assay; type: functional, cell-based; conditions: DU-145, 24 h
Quantity Measured: IC50

| Compound | IC50 |
| --- | --- |
| O=C1C[C@@H](c2ccccc2)N2CCc3cc(OCc4ccccc4)c(OCc4ccccc4)cc3[C@@H]2C1 (relative stereo) | > 20 µM |
| C[C@@H]1C[C@@H](O)C[C@H]2c3cc(OCc4cc(F)cc(F)c4)c(OCc4cc(F)cc(F)c4)cc3CCN12 | 1.88 µM |
| COc1ccc([C@@H]2C[C@@H](O)C[C@H]3c4cc(OCc5ccccc5)c(OCc5ccccc5)cc4CCN23)cc1OC | 1.59 µM |
| O[C@H]1C[C@@H](c2ccccc2)N2CCc3cc4c(cc3[C@@H]2C1)OCO4 | > 20 µM |
| O=C1C[C@@H](c2ccccc2)N2CCc3cc4c(cc3[C@@H]2C1)OCO4 (relative stereo) | > 20 µM |
| CC[C@@H]1C[C@@H](O)C/C=C(/C)[C@H]2c3cc(OCc4ccccc4)c(OCc4ccccc4)cc3CCN12 | > 20 µM |
| O[C@@H]1CCN2CCc3cc(OCc4ccccc4)c(OCc4ccccc4)cc3[C@@H]2C1 (relative stereo) | > 20 µM |
| C[C@@H]1C[C@@](C)(O)C[C@H]2c3cc(OCc4ccc(Br)cc4)c(OCc4ccc(Br)cc4)cc3CCN12 | 1.97 µM |
| CC(=O)O[C@@]12CO[C@@H]1C[C@H](O)[C@@]1(C)C(=O)[C@H](O)C3=C(C)[C@@H](OC(=O)[C@H](O)[C@@H](NC(=O)OC(C)(C)C)c4ccccc4)C[C@@](O)([C@@H](OC(=O)c4ccccc4)[C@H]21)C3(C)C [DOCETAXEL ANHYDROUS] | 0.026 µM |
| Oc1cc2c(cc1O)[C@@H]1C[C@H](O)C[C@@H](c3ccccc3)N1CC2 | > 20 µM |

## Task // returns reported IC50 for input O=C1C[C@@H](c2ccccc2)N2CCc3ccc(OCc4ccccc4)cc3[C@@H]2C1 (relative stereo)
## Result > 20 µM

## Task Also, C[C@@H]1C[C@@H](O)C[C@H]2c3cc(OCc4ccc(C(C)(C)C)cc4)c(OCc4ccc(C(C)(C)C)cc4)cc3CCN12 please.
## Result 2.22 µM

## Task Also, Oc1cc2c(cc1O)[C@@H]1C[C@@H](O)C[C@@H](c3ccccc3)N1CC2 please.
## Result > 20 µM

## Task Also, COc1ccc([C@@H]2C[C@H](O)C[C@H]3c4cc(OCc5ccccc5)c(OCc5ccccc5)cc4CCN23)cc1OC please.
## Result > 20 µM

## Task Also, O=C1C=CN2CCc3cc(OCc4ccccc4)c(OCc4ccccc4)cc3C2C1 (configuration not stated) please.
## Result > 20 µM

## Task Also, O[C@@]1(c2ccccc2)C[C@@H](c2ccccc2)N2CCc3cc(OCc4ccccc4)c(OCc4ccccc4)cc3[C@@H]2C1 please.
## Result > 20 µM

## Task Also, O[C@H]1C[C@@H](c2ccccc2)N2CCc3cc(OCc4ccccc4)ccc3[C@@H]2C1 please.
## Result > 20 µM

---

system: DU-145; assay: Cytotoxicity against human DU145 cells assessed as cell growth inhibition after 24 hrs by MTT assay; assay type: functional, cell-based; details: DU-145, 24 h
// returns Not met unless IC50 is strictly below 3 µM, in which case Met

| Compound | Category |
| --- | --- |
| C[C@@H]1CC(=O)C[C@H]2c3cc(OCc4ccccc4)c(OCc4ccccc4)cc3CCN12 (relative stereo) | Not met |
| O[C@@H]1C[C@@H](c2ccccc2)N2CCc3cc4c(cc3[C@@H]2C1)OCO4 | Not met |
| CC[C@@H]1C[C@@H](O)C[C@H]2c3cc(OCc4ccccc4)c(OCc4ccccc4)cc3CCN12 | Met |
| CC[C@@H]1C[C@H](O)C[C@H]2c3cc(OCc4ccccc4)c(OCc4ccccc4)cc3CCN12 | Not met |
| COc1cc2c(cc1OC)[C@@H]1CC(=O)C[C@@H](c3ccccc3)N1CC2 (relative stereo) | Not met |

// next entry
## Task Would you kindly verify if IC50 of COc1ccc([C@@H]2C[C@@H](O)C[C@H]3c4cc(OCc5cc(F)cc(F)c5)c(OCc5cc(F)cc(F)c5)cc4CCN23)cc1OC is strictly less than 3 µM?
## Result Not met
